In this section, each of the binders is paired with its reported relative binding ratio (IC50 of standard peptide / IC50 of test peptide).
- EXPERIMENTAL SYSTEM: T1, HLA-A*0301 (human)
- T1 construct: Purified HLA molecule, 5 to 500 nM in the assay; also called HLA-A3
- ASSAY: competition with 125I-labelled probe peptide on purified HLA-A*0301, gel filtration; ratio to standard peptide 941.12
Report as a plain number; the unit relative binding ratio is understood.

Some binders with known relative binding ratio (IC50 of standard peptide / IC50 of test peptide) results, for comparison:
BINDER: WMALESILR [HER2/neu peptide, position 888, 9 amino acids]
RECORDED MEASUREMENT: -0.0002

BINDER: YVMAGVGSPY [HER2/neu peptide, position 772, 10 amino acids]
RECORDED MEASUREMENT: 0.01

Measured relative binding ratio (IC50 of standard peptide / IC50 of test peptide) of WMIDSECRPR [HER2/neu peptide, position 959, 10 amino acids] : -0.0002

Measured relative binding ratio (IC50 of standard peptide / IC50 of test peptide) of YVLIAHNQVR [HER2/neu peptide, position 83, 10 amino acids] : 0.0043
